Origin of the recorded values: the supplement of paper PMC9170038

Test system: K4 kissing-loop RNA reporter;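 further: bound reporter read as fluorescence of individual clusters on recovered sequencing chips by microscopy, with normalized cluster intensities fitted with a binding model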
Assay: apparent KD of K4 kissing-loop reporter; higher = weaker reporter binding
Conditions: Eterna round: R107; input ligand: theophylline 20 uM
metric: apparent KD of K4 kissing-loop reporter

Some sequences with recorded apparent KD of K4 kissing-loop reporter:
UACUUUAAUUUAUAACUAUCUUUAUUUUGUCAGGAUAUCGUAUAGUCGAGAAGGGACUCUAUCAAGUGAUGUUUGAUAUAUCGUU [JR_SSFMNA_Sub025]    147 nM
GAUUUAGAGGCGGCCGCCACUAGUGAUGUUAGUGAUGUUUGAUACUGUAUAUAUCGGCGUGUAGAUAGGACCGGGCCUGAUGGAG [drrdmullin]    210 nM
AAAUUUUAAAGUGAUACCAGACAUCUCAAUUACAUUAAUAAAGCUAAGUGAUGUUUAGCAGUCCCUUGGCAGCACAAUUUAAUUA [JR_SSTheophyB_Sub011]    447 nM
GCCGUAGAUGGAAGGAGCGUGGUGGACUCGUGAAGUGAUGUUUCAAGUCGAUAUGCCCAACCACAGGUAGGUCGCCAUCUACGGC    198 nM
CGCGUAUCGGCAGGAUAUGGAGUUGAGUGAUGUUCAGCAAUGGGUCAUCAUCUUUAUGACAAUCCACCAGAAGGGCCGAUACGCG    944 nM
CCAUCCGAGUCGGCCGCCACUUUGAGUGAUGUUUGGAGUCUGAGUCAACAUAAAUACUUAGUUUAAAGGACCGGGACUUCGGAUG [theeternabot_exclusion_KL_Trp_B_7]    1060 nM
AAAGCAUUGAGAAGGAGCGUGACGUGGAGUGAUGUUCCAUUGUAGUAAUAAUUACUACUAUCACAGGUAGGUCGCUCAUUGCUAA [JR_Nu_SSArginiB_Sub024]    161 nM
AAAAUAAUCCAGUGAUGUUGGUCUCCAGAUACCAGCGACGAAAGUCGCCCUUGGCAGCUGUGGACGUACAAAAUAAGUACGUCCU    345 nM

Consider the sequence GGAGGGAUCUCGGCCGCCACUCGUAAGAAAUGGGCCUCAGGGAUAUAGUGAUGUUAUGUAAAGAAGAGGACCGGGAGAAAGAAGG [ExTryptoB.Dd] and give its recorded apparent KD of K4 kissing-loop reporter. 306 nM

Indicate the recorded apparent KD of K4 kissing-loop reporter value for this sequence: CCAUCGCUAUUCGAUACCAGCUAAAUAUAAUAUAACCAGUGAUGUUGGUAUAUAAAUAUAAGCCCUUGGCAGCGAAUAGUGAUGG [Theophylline B K4 30] 103 nM

Give the reported apparent KD of K4 kissing-loop reporter for this sequence. UUUUAAAUGUCUGAUACCAGAGAAAAUAUAUGUAGUGAUGUUAUAUACAAAUUGAAUAAGCUCCCUUGGCAGCAGUAUUAAUUUU [AstrosExc-TheB#11] 662 nM

Item AGGGAUGUUAAAGGAUAUAGAAAGUGAUGUUAGAAAGUGAGUGAUGUUGAUGUAAGUGAUGUUAUGUUAGAAGGUUAACAAAACG [ab] : provide apparent KD of K4 kissing-loop reporter 215 nM

Retrieve apparent KD of K4 kissing-loop reporter measured for AGGGUAAGGCGUUAACAUGACACCUGGGAAGGAGCGCGGUACACCGCAGGUAGGUCGCCCAGUGAUGUUGGGCGUAAGUAUGAGU [KL-XArg-A22] and print it. 180 nM
